- ASSAY INFO: method code SF-HPLC, from DOI: 10.1016/j.ecoenv.2011.11.024
- MEASUREMENT PARAMETERS: pH 2.0
MEASUREMENT TYPE: logD

1) Sc1cccc(Cl)c1Cl 2.44
2) Fc1ccccc1S 1.9
3) Cc1cccc(S)c1 3.13
4) Sc1ccc(Cl)cc1Cl 2.49
5) COc1cccc(S)c1 2.93

(a) Sc1cc(Cl)ccc1Cl
(b) Cc1ccc(S)c(C)c1
Between a and b , which one has the lower reported logD value? Give the chosen item's label as your response. a
(a: 2.48, b: 3.77)

(A) Sc1c(Cl)cccc1Cl
(B) Cc1ccccc1S
Of the two listed items, A and B , which carries the larger logD figure? Answer with the label corresponding to your selection. B

###

- ASSAY INFO: method code SF-HPLC, from DOI: 10.1016/j.ecoenv.2011.11.024
- MEASUREMENT PARAMETERS: pH 2.0
MEASUREMENT TYPE: logD

1) COc1ccc(S)cc1OC 3.32
2) Sc1cccc(Br)c1 2.48
3) Cc1ccc(C)c(S)c1 3.92
4) Sc1cccc(Cl)c1 2.47
5) Cc1ccc(S)cc1C 3.62
6) Cc1cccc(C)c1S 4.02

(a) Cc1ccc(S)cc1
(b) Fc1cc(F)c(F)c(S)c1F
Given the listed records, identify the one among a and b with higher logD. In your reply, give the label of the chosen option. a
(a: 3.27, b: 1.76)

###

- ASSAY INFO: method code SF-HPLC, from DOI: 10.1016/j.ecoenv.2011.11.024
- MEASUREMENT PARAMETERS: pH 2.0
MEASUREMENT TYPE: logD

1) Sc1ccc(Cl)cc1 2.66
2) Fc1ccc(S)cc1 2.92
3) Fc1cccc(S)c1 2.12
4) Sc1ccccc1Cl 2.27
5) Sc1ccc(Br)cc1 2.72
6) Sc1ccccc1Br 2.44
7) Sc1cc(Cl)cc(Cl)c1 2.43

Data origin: the SangsterLogP compilation
